molecular target: Histone deacetylase 2 (Homo sapiens, UniProt Q92769); assay: Inhibition of human recombinant HDAC2 using ZMAL (Z-Lys(Ac)-AMC) fluorogenic substrate incubated for 90 mins by fluorescence based assay
Sequence (Q92769 whole entry): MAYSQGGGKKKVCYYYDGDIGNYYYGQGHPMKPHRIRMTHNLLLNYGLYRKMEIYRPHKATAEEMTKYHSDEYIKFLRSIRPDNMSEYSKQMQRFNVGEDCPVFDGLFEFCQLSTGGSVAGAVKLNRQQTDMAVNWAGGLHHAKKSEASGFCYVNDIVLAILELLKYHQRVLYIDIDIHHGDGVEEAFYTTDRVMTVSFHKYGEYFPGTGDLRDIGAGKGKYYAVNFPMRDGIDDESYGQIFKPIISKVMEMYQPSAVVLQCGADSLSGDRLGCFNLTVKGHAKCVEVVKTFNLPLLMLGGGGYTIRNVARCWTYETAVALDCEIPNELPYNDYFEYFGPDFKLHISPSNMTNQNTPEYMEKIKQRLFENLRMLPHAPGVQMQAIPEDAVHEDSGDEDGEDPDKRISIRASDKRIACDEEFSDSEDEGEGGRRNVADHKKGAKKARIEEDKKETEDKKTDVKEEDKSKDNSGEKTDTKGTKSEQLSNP
pIC50: −log10 of the molar value.

sample_smiles | pIC50
O=C(NO)c1ccc(CN(Cc2nnnn2Cc2ccccc2)C(=O)c2ccccc2C(F)(F)F)cc1 | 5.65

###

biological target: Histone deacetylase 4 (Homo sapiens, UniProt P56524); test: Inhibition of human recombinant HDAC4 using Boc-Lys-(epsilon-Tfa)-AMC fluorogenic substrate incubated for 90 mins by fluorescence based assay
Sequence (P56524 whole entry): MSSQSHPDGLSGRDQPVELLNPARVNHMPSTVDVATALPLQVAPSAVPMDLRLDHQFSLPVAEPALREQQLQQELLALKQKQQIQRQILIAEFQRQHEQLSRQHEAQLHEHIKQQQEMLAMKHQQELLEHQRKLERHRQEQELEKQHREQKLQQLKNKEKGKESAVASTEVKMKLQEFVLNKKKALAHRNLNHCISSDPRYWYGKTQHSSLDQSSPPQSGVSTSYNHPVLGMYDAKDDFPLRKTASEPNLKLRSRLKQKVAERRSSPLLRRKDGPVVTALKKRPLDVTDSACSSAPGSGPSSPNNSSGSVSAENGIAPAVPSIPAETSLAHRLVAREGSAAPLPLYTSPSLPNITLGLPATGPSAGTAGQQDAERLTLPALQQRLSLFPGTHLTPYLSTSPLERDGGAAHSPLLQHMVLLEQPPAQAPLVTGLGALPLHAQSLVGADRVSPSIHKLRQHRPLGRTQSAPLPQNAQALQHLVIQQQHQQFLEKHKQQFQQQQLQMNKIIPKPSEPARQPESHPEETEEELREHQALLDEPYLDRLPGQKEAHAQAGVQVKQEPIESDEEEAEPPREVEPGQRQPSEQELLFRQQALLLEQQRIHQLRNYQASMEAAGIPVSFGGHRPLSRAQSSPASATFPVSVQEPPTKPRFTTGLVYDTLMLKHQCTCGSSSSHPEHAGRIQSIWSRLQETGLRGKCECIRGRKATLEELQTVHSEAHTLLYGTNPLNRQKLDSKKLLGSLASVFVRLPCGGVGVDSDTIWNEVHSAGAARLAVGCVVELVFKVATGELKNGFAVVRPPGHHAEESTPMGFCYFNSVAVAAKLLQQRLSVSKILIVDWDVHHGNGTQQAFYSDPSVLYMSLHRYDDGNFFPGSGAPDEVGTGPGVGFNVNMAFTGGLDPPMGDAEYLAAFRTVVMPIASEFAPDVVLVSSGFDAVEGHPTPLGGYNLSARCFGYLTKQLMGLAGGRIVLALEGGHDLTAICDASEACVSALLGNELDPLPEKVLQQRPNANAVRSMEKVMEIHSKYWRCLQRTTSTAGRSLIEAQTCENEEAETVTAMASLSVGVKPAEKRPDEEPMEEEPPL
pIC50: −log10 of the molar value.
measurement_type: pIC50

sample_smiles | value_observed
O=C(NO)c1ccc(CN(Cc2nnnn2Cc2ccccc2)C(=O)c2ccccc2C(F)(F)F)cc1 | 4.26

###

molecular target: Histone deacetylase 1 (Homo sapiens, UniProt Q13547); experiment: Inhibition of human recombinant HDAC1 using ZMAL (Z-Lys(Ac)-AMC) fluorogenic substrate incubated for 90 mins by fluorescence based assay
Sequence (Q13547 whole entry): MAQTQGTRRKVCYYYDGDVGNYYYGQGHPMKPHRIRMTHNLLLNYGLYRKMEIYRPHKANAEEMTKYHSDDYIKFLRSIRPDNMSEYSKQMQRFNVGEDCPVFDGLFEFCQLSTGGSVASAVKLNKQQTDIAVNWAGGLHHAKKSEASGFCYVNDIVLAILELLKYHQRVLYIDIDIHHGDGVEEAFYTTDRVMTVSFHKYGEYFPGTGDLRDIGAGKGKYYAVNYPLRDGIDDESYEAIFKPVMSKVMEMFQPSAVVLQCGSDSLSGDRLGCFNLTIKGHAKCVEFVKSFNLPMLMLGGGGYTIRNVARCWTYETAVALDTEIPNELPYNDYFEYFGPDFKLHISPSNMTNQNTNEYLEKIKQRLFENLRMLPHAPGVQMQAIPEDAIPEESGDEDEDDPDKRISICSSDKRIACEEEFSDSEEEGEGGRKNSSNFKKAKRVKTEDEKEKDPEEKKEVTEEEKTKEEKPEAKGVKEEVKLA
With a cut-off of 2000 nM, any IC50 strictly below it is called T; any IC50 meeting it or above is called F.

compound | class_name
O=C(NO)c1ccc(CNC(c2ccccc2)c2nnnn2C2CCCCC2)cc1 (stereo not given) | F
O=C(NO)c1ccc(CN(Cc2nnnn2C2CCCCC2)C(=O)c2ccccc2)cc1 | F
CC(C)c1ccc(C(=O)N(Cc2ccc(C(=O)NO)cc2)Cc2nnnn2Cc2ccccc2)cc1 | T
Cc1cc(C)cc(C(=O)N(Cc2ccc(C(=O)NO)cc2)Cc2nnnn2Cc2ccccc2)c1 | T

###

Target: Protein deacetylase HDAC6 (Homo sapiens, UniProt Q9UBN7)
Sequence (Q9UBN7 whole entry): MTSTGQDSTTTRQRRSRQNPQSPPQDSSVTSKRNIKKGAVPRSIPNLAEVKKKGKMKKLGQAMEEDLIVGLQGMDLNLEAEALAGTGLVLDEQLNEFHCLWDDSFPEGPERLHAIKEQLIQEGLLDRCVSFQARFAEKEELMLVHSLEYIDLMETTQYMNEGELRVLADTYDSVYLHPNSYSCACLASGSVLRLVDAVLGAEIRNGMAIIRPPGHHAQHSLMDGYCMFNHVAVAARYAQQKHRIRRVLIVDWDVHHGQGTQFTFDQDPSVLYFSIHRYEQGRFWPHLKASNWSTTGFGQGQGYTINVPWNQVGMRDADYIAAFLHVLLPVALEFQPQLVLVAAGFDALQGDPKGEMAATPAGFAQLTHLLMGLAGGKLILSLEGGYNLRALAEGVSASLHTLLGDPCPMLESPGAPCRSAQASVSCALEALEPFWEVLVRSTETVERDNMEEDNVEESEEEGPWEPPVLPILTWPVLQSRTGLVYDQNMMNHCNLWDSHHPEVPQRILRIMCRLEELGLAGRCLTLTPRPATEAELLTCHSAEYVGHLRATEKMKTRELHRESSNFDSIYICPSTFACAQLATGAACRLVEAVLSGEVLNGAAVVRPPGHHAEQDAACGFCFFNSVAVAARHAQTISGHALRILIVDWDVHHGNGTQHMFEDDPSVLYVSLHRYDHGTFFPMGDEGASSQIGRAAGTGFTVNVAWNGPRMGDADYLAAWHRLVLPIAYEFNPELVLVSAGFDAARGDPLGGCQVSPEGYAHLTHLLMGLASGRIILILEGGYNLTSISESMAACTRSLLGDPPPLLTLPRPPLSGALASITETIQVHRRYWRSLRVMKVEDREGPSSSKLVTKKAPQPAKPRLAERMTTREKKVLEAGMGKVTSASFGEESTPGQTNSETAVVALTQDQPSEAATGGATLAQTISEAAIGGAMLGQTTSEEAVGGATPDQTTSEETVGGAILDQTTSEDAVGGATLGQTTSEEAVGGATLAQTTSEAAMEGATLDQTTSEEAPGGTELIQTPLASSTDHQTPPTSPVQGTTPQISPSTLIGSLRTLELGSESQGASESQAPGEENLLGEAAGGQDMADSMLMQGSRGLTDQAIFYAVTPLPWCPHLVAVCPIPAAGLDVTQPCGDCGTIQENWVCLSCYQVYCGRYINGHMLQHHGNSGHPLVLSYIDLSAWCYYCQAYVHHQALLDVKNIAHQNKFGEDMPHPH
Assay: Inhibition of human recombinant HDAC6 using ZMAL (Z-Lys(Ac)-AMC) fluorogenic substrate incubated for 90 mins by fluorescence based assay
# IC50 values compiled below
measurement_type: IC50 (nM)

compound | unit_of_measurement | value_observed
CCCCC(NCc1ccc(C(=O)NO)cc1)c1nnnn1Cc1ccccc1 (configuration not stated) | nM | 120
O=C(NO)c1ccc(CNC(c2ccccc2)c2nnnn2Cc2ccccc2)cc1 (configuration not stated) | nM | 100
O=C(NO)c1ccc(CN(Cc2nnnn2C2CCCCC2)C(=O)c2ccccc2)cc1 | nM | 70
O=C(NO)c1ccc(CNCc2nnnn2Cc2ccccc2)cc1 | nM | 100
CC(C)(C)n1nnnc1CNCc1ccc(C(=O)NO)cc1 | nM | 330
O=C(NO)c1ccc(CNC(c2ccccc2)c2nnnn2C2CCCCC2)cc1 (configuration not stated) | nM | 120
O=C(NO)c1ccc(CN(Cc2nnnn2Cc2ccccc2)C(=O)c2ccccc2C(F)(F)F)cc1 | nM | 30
O=C(NO)c1ccc(CN(Cc2nnnn2Cc2ccccc2)C(=O)c2ccccc2)cc1 | nM | 30
Cc1cc(C)cc(C(=O)N(Cc2ccc(C(=O)NO)cc2)Cc2nnnn2Cc2ccccc2)c1 | nM | 80
O=C(NO)c1ccc(CNCc2nnnn2C2CCCCC2)cc1 | nM | 120
CC(C)c1ccc(C(=O)N(Cc2ccc(C(=O)NO)cc2)Cc2nnnn2Cc2ccccc2)cc1 | nM | 320
Cc1ccccc1C(=O)N(Cc1ccc(C(=O)NO)cc1)Cc1nnnn1C1CCCCC1 | nM | 60
